Test system: Histophilus somni
Assay: minimum inhibitory concentration (MIC)
Conditions: isolate (source animal id): 110
endpoint name: minimum inhibitory concentration (µg/mL)
// units = µg/mL; emit number, no label

molecule: CNC(C)C1CCC(N)C(OC2C(N)CC(N)C(OC3OCC(C)(O)C(NC)C3O)C2O)O1 (centres undefined) [Gentamicin]
minimum inhibitory concentration [µg/mL]: 16

Moving on to the next molecule.
Problem: Which measured minimum inhibitory concentration value corresponds to CN(C)[C@@H]1C(O)=C(C(N)=O)C(=O)[C@@]2(O)C(O)=C3C(=O)c4c(O)cccc4[C@@](C)(O)[C@H]3C[C@@H]12 [Tetracycline] ?
Result: 4
